Cited source for all entries: ChEMBL document CHEMBL3785084

Tested on: SN12C
Assay: Cytotoxicity against human SN12C cells assessed as cell growth at 10^-5 M after 48 hrs by sulforhodamine B assay
Type: functional
Details: read-out: Activity
quantity_name: growth at 10 µM

# annotated cases, reported growth at 10 µM shown
{"molecule": "COc1cc(/C=C2\\C(=O)Nc3ccccc32)cc(OC)c1O", "target_system": "SN12C", "growth at 10 µM": "77%"}
{"molecule": "CC1=NN(c2cccc(Cl)c2)C(=O)/C1=C\\c1cn(CC(O)Cn2cc(/C=C3\\C(=O)N(c4cccc(Cl)c4)N=C3C)c3ccccc32)c2ccccc12", "target_system": "SN12C", "growth at 10 µM": "99.7%"}
{"molecule": "O=C1NC(=O)C(=Cc2cn(CC(O)Cn3cc(C=C4C(=O)NC(=O)NC4=O)c4ccccc43)c3ccccc23)C(=O)N1", "target_system": "SN12C", "growth at 10 µM": "107%"}
{"molecule": "CN1C(=O)C(=Cc2cn(CC(O)Cn3cc(C=C4C(=O)N(C)C(=O)N(C)C4=O)c4ccccc43)c3ccccc23)C(=O)N(C)C1=O", "target_system": "SN12C", "growth at 10 µM": "99.1%"}

Bench note: what growth at 10 µM did O=C1Nc2ccccc2/C1=C/c1cn(CC(O)Cn2cc(/C=C3\C(=O)Nc4ccccc43)c3ccccc32)c2ccccc12 (stereo not given) show?
-53.6%
